meta.source: the nanobody polyreactivity screen of Harvey et al. (2022)

# assay: yeast display, Sf9 membrane polyspecificity reagent, FACS + sequencing; frameworks hold sequencing errors
measured-endpoint: polyreactivity (PSR sort gate)

Consider the worked cases shown below.
{"biopolymer-sequence": "QVQLVESGGGLVQAGGSLRLSCAAAGRTVPRYTMGWYRQAPGKEMELVAAISRGGSTNYAYSVKGLFTISRDNAKNTVYLVMNSLKPEDTAVYYCNADYWYDWKSYDYWGEGTQVTVSS", "polyreactivity (PSR sort gate)": "high polyreactivity"}
{"biopolymer-sequence": "QVQLVESGGGLVQAGGSLRLTCAASGYIFNRNAMGWYRQAPGKERELVAAISGSGAVTYYADSVKGRFTISRDNAKNTVYFQMNSLKPEDTAVYYCAKKLYWREGRYDYWGQGTQVTVSS", "polyreactivity (PSR sort gate)": "high polyreactivity"}
{"biopolymer-sequence": "QVQLVESGGGLVQAGGSLRLSCAASGSIFVLYAMGWYRQAPGKERELVAAINYDGASTYYADSVKGRFTISRDNAKNTVYLQMNSLKPEDTAVYYCAARWQFNIDVQLYLFEYWGQGTEVTVSS", "polyreactivity (PSR sort gate)": "low polyreactivity"}
{"biopolymer-sequence": "QVQLVESGGGLVQAGGSLRLSCAASGSTISSYAMGWYREAPGKERELVAAIDRSVSTNYADSVKGRFTISRDNAKNTVYLQMNSLKPEDTAVYYCNARHPTDDIVIYDYWGQGTQVTVSS", "polyreactivity (PSR sort gate)": "low polyreactivity"}
{"biopolymer-sequence": "QVQLVESGGGLVQAGGSLRISCAASGRTFDSYAMGWYIQAPGKEREFVAAISYSGTSTYYADSVKGRFTISRDYAKNTVYLQMNSLIPEDTAVYYCAKEFIFRLWGQGTQVTVSS", "polyreactivity (PSR sort gate)": "low polyreactivity"}
{"biopolymer-sequence": "QVQLVESGGGLVQAGGSLRLSCAASGFTFWKYSMGWYRQAPGKERELVATITSSGDNTYYADSVKGRFTISRDNAKNTVYLQMNSLKPEDTAVYYCAADNGYHYNFDYWGQGTQVTVSS", "polyreactivity (PSR sort gate)": "low polyreactivity"}
{"biopolymer-sequence": "QVQLVESAGGLVHAGGSLSLSCAASAILGNNAMGWYRQAPRKQRELVAAISARGGRTYYADSVKGRFTISRDNAKNTVYLQMNSLKPEDTAVYYCATLETSGVNYWGQGTQVTVSS", "polyreactivity (PSR sort gate)": "high polyreactivity"}
{"biopolymer-sequence": "QVQLVESGGGLVQAGGSLRLSCAASGFTFYHYAMGWYRQAPGKERELVATISKRGGSTYYADSVKGRFTISRDNAKNTVYLQMNSLKPEDTAVYYCAAKIYWSSLKMDYWGQGTQVTVSS", "polyreactivity (PSR sort gate)": "high polyreactivity"}
{"biopolymer-sequence": "QVQHVESCGGLDQAGGSLRLSCAASGRTFKYYTMGWYRQAPGKQREFVAAISTGGSTHYADSVKGRFTISRDNAKNTVYLQMNSLKPEVTAVSYCAAGCVLWVRDPQGRASYYWGQGTHVTVSS", "polyreactivity (PSR sort gate)": "high polyreactivity"}
{"biopolymer-sequence": "QVQLVESGGGLVQAGGSLRLSCAASGFTFASYAMGWYRQAPAKEREFVAAITSRGGNTYYADSVKGRFTISRDNAKNTVYLQMNSLKPEDTAVYYCAAKSTYVVSKMNYWGQGTQVTVSS", "polyreactivity (PSR sort gate)": "high polyreactivity"}

Item `QVQLVESGGGLVQAGGSLRLSCAASGITFEYNAMGWYRQAPGKERELVATISGGARTYYADSVKGRFTISRDNAKNTVYLQMNSLKPEETAVYYCAAKYPWYGWFDHWGQGTQVTVSS` has what recorded polyreactivity (PSR sort gate)?
low polyreactivity

Item `KVQLVESGGGLVQAGGSLRLSCAASGSIFTHNAMGWYRQAPGKERELVAAISSGGSTNYADSVKGRFTISRDNAKNTVYLQMNSLKPEDTAVYYCAKSIDGWYWRRRRYDYWGQGTQVTVSS` has what recorded polyreactivity (PSR sort gate)?
low polyreactivity

Item `QVQLVESGGGLVQAGGSLRLSCAASGRIFDIYAMGWYRQAAGKERELVAAIRLSSGTTYYADSVKGRFTISRDNAKNTVYLQMNSLKPEDTAVYYCGADFIRPPYDYWGQGTQVTVSS` has what recorded polyreactivity (PSR sort gate)?
high polyreactivity

Item `QVQLVESGGGLVQAGGSLRLSCAASGLTFAYYDMGWYRQAPGKERELVAAITSGGTTNYADSVKGRFTISRDNAKNTVYLQMNSLKPEDTAVYYCNADYYSRIVGVRIYDYWGQGTQVTVSS` has what recorded polyreactivity (PSR sort gate)?
low polyreactivity

Item `QVQLVESRGGLVQAGGSLRLSCAASGRIFWVNAMGWYRQAPGKERELVAVISRGGSTTYADSVKGRFTISRDNAKNTVYLQMNSLKPEDTAVYYCAADAYRHAFLYYGYDYWGQGTQVTVSS` has what recorded polyreactivity (PSR sort gate)?
low polyreactivity
